B1: Hairpin Ribozyme (parent)
chain: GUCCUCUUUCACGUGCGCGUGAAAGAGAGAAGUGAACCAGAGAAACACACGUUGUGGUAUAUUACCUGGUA

Variants of: B1
Test: self-cleavage, relative activity (ratio to wild type); higher = more cleavage; co-transcriptional

MUTATIONS | self-cleavage
C4A G15C | 0.358
U8G U33A | 0.136
A49C C65G | 0.168
G57C U60A | 0.14
A43U C66A | 0.0293
G21U A61C | 0.237
A36C | 0.659
G15A G32U | 0.0825
U20C U53A | 0.861
A36G G68U | 0.237
C4A A36C | 0.138
A44C U60G | 0.0874
C3G A36U | 0.174
A28U G51U | 0.485
C6G A47U | 0.13
A24G G54U | 0.607
G21U G51C | 0.859
G19U U70A | 0.773
G42U A45U | 0.112
G29A U62G | 0.21
G19A U20C | 1.12
U55A A61C | 0.104
G29U U70C | 0.127
G15U C37U | 0.784
G13A G34C | 1.33
A28C G57A | 0.119
U53A C66A | 0.205
G32U A59U | 0.0402
A39C C65G | 0.167
G15U C66G | 0.183
G27U C48A | 0.0902
U62C U63A | 0.21
G34A A49C | 0.12
A24C A61C | 0.139
G40A G68A | 0.211
A11C G56C | 0.108
U58A A59G | 0.122
C6U A22G | 0.796
U2C A35G | 0.243
A30U U63A | 0.13
A43C A59U | 0.101
U14G A30U | 0.175
G42U U58A | 0.0966
A44G U63G | 0.239
A28C A47C | 0.0848
U5C G54C | 0.169
A30G C50U | 0.0809
A11U G54C | 0.333
G1U G51U | 0.133
A24C A61G | 0.156
C18U G21U | 0.814
A24U U63G | 0.146
U14C A31G | 0.737
A41U A64G | 0.372
U14C A24U | 0.545
